system-tested: human 5-LOX (Homo sapiens, UniProt P09917)
Sequence (P09917 1-674): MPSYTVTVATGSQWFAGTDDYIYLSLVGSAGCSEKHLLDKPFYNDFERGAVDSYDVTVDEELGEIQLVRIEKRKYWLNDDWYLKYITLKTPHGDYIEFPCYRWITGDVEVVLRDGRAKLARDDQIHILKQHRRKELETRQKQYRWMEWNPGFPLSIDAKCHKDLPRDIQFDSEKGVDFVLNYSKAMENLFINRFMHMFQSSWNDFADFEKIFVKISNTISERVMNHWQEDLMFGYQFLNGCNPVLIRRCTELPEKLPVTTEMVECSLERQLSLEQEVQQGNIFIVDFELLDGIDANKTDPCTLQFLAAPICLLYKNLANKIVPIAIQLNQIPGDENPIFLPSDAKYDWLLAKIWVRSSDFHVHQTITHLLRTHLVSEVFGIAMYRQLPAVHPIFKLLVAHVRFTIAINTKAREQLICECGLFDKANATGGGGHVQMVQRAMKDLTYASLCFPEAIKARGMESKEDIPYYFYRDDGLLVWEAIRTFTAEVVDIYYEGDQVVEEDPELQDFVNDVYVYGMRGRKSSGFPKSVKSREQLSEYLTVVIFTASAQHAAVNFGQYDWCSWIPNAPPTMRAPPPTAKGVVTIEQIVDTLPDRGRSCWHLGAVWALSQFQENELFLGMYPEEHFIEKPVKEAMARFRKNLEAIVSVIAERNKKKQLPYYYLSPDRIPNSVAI
measurement-protocol: Binding assay using isothermal titration calorimetry
cond: read-out: KD (KD2); ITC, Human 5-LOX, sequential binding sites, second site
pKd: −log10 of the molar value.
measurement-kind: pKd

molecule	measurement-kind	reading
CC1(C)Cc2c(-c3ccccc3)c(-c3ccc(Cl)cc3)c(CC(=O)NCC(=O)O)n2C1 [LFA-9]	pKd	3.68

###

system-tested: human COX-1 (Homo sapiens, UniProt P23219)
Sequence (P23219 24-599): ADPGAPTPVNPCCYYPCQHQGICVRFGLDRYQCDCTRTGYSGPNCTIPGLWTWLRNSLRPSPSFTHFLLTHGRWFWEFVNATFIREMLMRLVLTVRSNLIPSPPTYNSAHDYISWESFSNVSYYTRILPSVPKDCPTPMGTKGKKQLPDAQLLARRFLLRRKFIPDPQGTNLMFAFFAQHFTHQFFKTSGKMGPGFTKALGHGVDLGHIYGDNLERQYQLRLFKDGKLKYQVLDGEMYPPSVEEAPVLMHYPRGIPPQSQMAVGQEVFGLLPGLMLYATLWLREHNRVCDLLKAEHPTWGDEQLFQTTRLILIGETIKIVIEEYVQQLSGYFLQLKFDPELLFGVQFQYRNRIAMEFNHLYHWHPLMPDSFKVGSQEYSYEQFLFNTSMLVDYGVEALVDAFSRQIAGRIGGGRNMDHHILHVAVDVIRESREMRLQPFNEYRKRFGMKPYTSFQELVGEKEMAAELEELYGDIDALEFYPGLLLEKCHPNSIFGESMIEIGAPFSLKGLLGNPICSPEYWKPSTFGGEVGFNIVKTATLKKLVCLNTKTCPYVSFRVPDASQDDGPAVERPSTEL
pIC50: −log10 of the molar value.
measurement-kind: pIC50

compound	system-tested	measurement-kind	reading
CC1(C)Cc2c(-c3ccccc3)c(-c3ccc(Cl)cc3)c(CC(=O)O)n2C1 [Licofelone, reference compound]	human COX-1 (Homo sapiens, UniProt P23219)	pIC50	5.78

###

system-tested: human COX-2 (Homo sapiens, UniProt P35354)
Sequence (P35354 18-604): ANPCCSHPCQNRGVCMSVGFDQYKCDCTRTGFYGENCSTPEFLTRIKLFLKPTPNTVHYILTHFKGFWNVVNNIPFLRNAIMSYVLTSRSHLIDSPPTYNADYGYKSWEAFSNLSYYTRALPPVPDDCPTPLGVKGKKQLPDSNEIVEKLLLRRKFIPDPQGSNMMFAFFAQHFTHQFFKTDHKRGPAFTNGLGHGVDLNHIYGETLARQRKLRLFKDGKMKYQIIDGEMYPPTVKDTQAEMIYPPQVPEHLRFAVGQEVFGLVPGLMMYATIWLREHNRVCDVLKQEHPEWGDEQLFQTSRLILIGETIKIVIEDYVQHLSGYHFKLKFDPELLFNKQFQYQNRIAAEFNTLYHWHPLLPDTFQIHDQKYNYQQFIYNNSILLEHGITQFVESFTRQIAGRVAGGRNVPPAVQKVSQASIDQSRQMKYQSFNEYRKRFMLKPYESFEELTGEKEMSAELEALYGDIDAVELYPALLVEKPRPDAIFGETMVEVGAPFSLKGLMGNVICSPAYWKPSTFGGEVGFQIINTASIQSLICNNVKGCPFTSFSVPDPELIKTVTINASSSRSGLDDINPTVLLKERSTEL
measurement-protocol: Binding assay using isothermal titration calorimetry
pKd: −log10 of the molar value.
measurement-kind: pKd

compound-smiles	reading
CC1(C)Cc2c(-c3ccccc3)c(-c3ccc(Cl)cc3)c(CC(=O)NCC(=O)O)n2C1	< 3.00

###

# key: entry, value: IC50
system-tested: mouse mPGES-1 (Mus musculus)
Sequence (Q9JM51 1-153): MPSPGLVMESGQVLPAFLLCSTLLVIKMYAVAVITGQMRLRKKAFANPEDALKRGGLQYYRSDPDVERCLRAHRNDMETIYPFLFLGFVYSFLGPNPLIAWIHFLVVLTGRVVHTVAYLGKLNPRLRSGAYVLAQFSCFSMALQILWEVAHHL

compound	system-tested	bound-sign	IC50 / nM
CC1(C)Cc2c(-c3ccccc3)c(-c3ccc(Cl)cc3)c(CC(=O)NCC(=O)O)n2C1	mouse mPGES-1 (Mus musculus)	=	520
CC1(C)Cc2c(-c3ccccc3)c(-c3ccc(Cl)cc3)c(CC(=O)O)n2C1 [Licofelone, reference compound]	mouse mPGES-1 (Mus musculus)	>	15000

###

system-tested: rat COX-2 (Rattus norvegicus, UniProt P35355)
Sequence (P35355 18-604): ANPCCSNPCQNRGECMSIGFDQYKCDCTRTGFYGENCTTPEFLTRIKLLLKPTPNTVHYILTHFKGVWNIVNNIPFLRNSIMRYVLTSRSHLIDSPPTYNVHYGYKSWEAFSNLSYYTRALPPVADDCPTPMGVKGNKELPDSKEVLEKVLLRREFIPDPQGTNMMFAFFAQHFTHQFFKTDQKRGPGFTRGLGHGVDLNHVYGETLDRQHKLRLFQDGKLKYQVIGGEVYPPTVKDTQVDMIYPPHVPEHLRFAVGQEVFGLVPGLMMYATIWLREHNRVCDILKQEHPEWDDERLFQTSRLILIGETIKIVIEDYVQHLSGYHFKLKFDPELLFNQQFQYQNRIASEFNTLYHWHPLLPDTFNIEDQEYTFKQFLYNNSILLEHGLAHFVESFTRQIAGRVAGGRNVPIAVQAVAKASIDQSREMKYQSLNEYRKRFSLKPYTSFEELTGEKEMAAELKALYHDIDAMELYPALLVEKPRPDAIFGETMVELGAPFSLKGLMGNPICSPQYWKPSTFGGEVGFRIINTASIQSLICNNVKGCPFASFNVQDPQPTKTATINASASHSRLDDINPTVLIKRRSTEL

compound	system-tested	IC50 / µM
CC1(C)Cc2c(-c3ccccc3)c(-c3ccc(Cl)cc3)c(CC(=O)O)n2C1 [Licofelone, reference compound]	rat COX-2 (Rattus norvegicus, UniProt P35355)	3.26

Measured values drawn from paper PMC7781011 for this set.
